- test: Luminescence measurements of Eu(III) chelates with the ligands
- Format: physicochemical
- test context: Eu(III) complex of the ligand; 10 mM NH3-HCl buffer, pH 8.3
# calculated luminescence yield ε × Φ per record follows

# compound, assay endpoint, endpoint result
data = [
    ("O=C(O)CN(CC(=O)O)Cc1cc(-c2ccc3c(c2)C(CC(=O)O)(CC(=O)O)c2ccccc2-3)cc(CN(CC(=O)O)CC(=O)O)n1 [Compound 12]", "calculated luminescence yield ε × Φ", "3 500 cm^−1M^−1"),
    ("O=C(O)CN(CC(=O)O)Cc1cc(C#Cc2ccccc2)cc(CN(CC(=O)O)CC(=O)O)n1 [Ref ligand, reference compound]", "calculated luminescence yield ε × Φ", "1 800 cm^−1M^−1"),
    ("O=C(O)CN(CC(=O)O)Cc1cc(-c2ccc3c(c2)Cc2ccccc2-3)cc(CN(CC(=O)O)CC(=O)O)n1 [Compound 11]", "calculated luminescence yield ε × Φ", "4 800 cm^−1M^−1"),
]

Notebook: O=C(O)CN(CC(=O)O)Cc1cc(C#Cc2ccc3c(c2)C(CC(=O)O)(CC(=O)O)c2ccccc2-3)cc(CN(CC(=O)O)CC(=O)O)n1 [Compound 14] , calculated luminescence yield ε × Φ read as 4 200 cm^−1M^−1
